Test: Stability test of compound (a) in solution, remaining ratio at 60° C. (Experimental Example 2)
Assay type: physicochemical
Conditions: phosphate buffer, pH 7.5, no adjuvant; compound (a) 2.5 mg/ml; pH 7.5±0.1; 60° C. after four weeks
Measured Property: remaining at 672 h (%)
The reply should be a number in %, with the unit left off.

Exercise: What does the record list as remaining at 672 h for CC(C)c1ccc2oc3nc(N)c(C(=O)O)cc3c(=O)c2c1 [Compound (a)] ?
Solution: 66.8

----------
Test: Solubility test of compound (a) with and without solubilizers (Experimental Example 1; HPLC of filtrate)
Conditions: phosphate buffer, pH 7, aqueous buffer, Solubility of Compound (a), Caffeine 5 mg/ml; pH 7.0, 25° C., 48 hours
Description: Solubility tests of the compound (a) (2-amino-7-isopropyl-5-oxo-5H-[1]-benzopyrano[2,3-b]pyridine-3-carboxylic acid) employing the solubilizers of this invention and, for comparison, employing various conventional solubilizers were performed. The solubility was measured by the following manner: […]
Measured Property: solubility at 48 h (µg/mL)
Just the number in µg/mL, nothing appended.

Exercise: Dear colleague, I am looking for the recorded solubility at 48 h of the following compound: `CC(C)c1ccc2oc3nc(N)c(C(=O)O)cc3c(=O)c2c1`
Solution: 3720
